- System: conversion of E1S to E2 (sulfatase activity) in MCF-7 breast cancer cell line
- METHOD: Conversion of [3H]-E1S to E2 in MCF-7 human mammary cancer cells
- Assay type: cell-based
- MEASUREMENT_CONTEXT: Homo sapiens, MCF7, non-linear regression analysis
ASSAY_METRIC: IC50

COMPOUND_STRING: C#C[C@]1(O)CC[C@H]2[C@@H]3CCC4=C/C(=N/O)CC[C@@H]4[C@H]3CC[C@@]21CC
TARGET_ENTITY: conversion of E1S to E2 (sulfatase activity) in MCF-7 breast cancer cell line
ASSAY_METRIC: IC50
MEASURED: 0.178 µM

Shifting focus to the molecule that follows.
Summary for this molecule, "CC(=O)O[C@]1(C(C)=O)CC[C@H]2[C@@H]3C[C@H](C)C4=CC(=O)CC[C@]4(C)[C@H]3CC[C@@]21C" : IC50 is 26.1 µM

These data points were gathered from patent US20030225047A1.
